Origin of values: ChEMBL document CHEMBL1131568

test system: CHO; assay: Compound was tested for the drug concentration that inhibited cell growth by 50% compared to un treated control cultures of CHO /DOX cell line; format: functional, cell-based; settings: Cricetulus griseus
Criterion: IC50 strictly under 200 nM. Met: YES. Not met: NO.

Ask | Consider the compound COc1cccc2c1C(=O)c1c(O)c3c(c(O)c1C2=O)CC(O)(C(=O)CO)CC3OC1CC(NCCCC(=O)O)C(O)C(C)O1 (stereo not given) . Is its IC50 strictly less than 200 nM?
Reply | NO

Ask | Consider the compound COc1cccc2c1C(=O)c1c(O)c3c(c(O)c1C2=O)CC(O)(C(=O)CO)CC3OC1CC(NCCOCCC(OC(C)=O)OC(C)=O)C(O)C(C)O1 (stereo not given) . Is its IC50 strictly less than 200 nM?
Reply | YES

Ask | Consider the compound COc1cccc2c1C(=O)c1c(O)c3c(c(O)c1C2=O)CC(O)(C(=O)CO)CC3OC1CC(N(C)CCCCC(OC(C)=O)OC(C)=O)C(O)C(C)O1 (stereo not given) . Is its IC50 strictly less than 200 nM?
Reply | YES

Ask | Consider the compound COc1cccc2c1C(=O)c1c(O)c3c(c(O)c1C2=O)CC(O)(C(=O)CO)CC3OC1CC(NCCCOCCC(OC(C)=O)OC(C)=O)C(O)C(C)O1 (stereo not given) . Is its IC50 strictly less than 200 nM?
Reply | NO

Ask | Consider the compound COc1cccc2c1C(=O)c1c(O)c3c(c(O)c1C2=O)CC(O)(C(=O)CO)CC3OC1CC(NCCCCCC(OC(C)=O)OC(C)=O)C(O)C(C)O1 (stereo not given) . Is its IC50 strictly less than 200 nM?
Reply | YES

* * *

Field: IC50. Provide a value for each of the compounds that follow.
system: CHO; assay: Compound was tested for the drug concentration that inhibited cell growth by 50% compared to un treated control cultures of CHO /DOX cell line; format: functional, cell-based; details: Cricetulus griseus
Give a bare numeral; the unit nM is implied.

Lab book: IC50 of COc1cccc2c1C(=O)c1c(O)c3c(c(O)c1C2=O)CC(O)(C(=O)CO)CC3OC1CC(NCCC(C)(C)C(OC(C)=O)OC(C)=O)C(O)C(C)O1 (stereo not drawn) noted as 290

Lab book: IC50 of COc1cccc2c1C(=O)c1c(O)c3c(c(O)c1C2=O)CC(O)(C(=O)CO)CC3OC1CC(NCCCCCCCC(OC(C)=O)OC(C)=O)C(O)C(C)O1 (stereo not drawn) noted as 170

Lab book: IC50 of COc1cccc2c1C(=O)c1c(O)c3c(c(O)c1C2=O)CC(O)(C(=O)CO)CC3OC1CC(NCCCCCOC(C)=O)C(O)C(C)O1 (stereo not drawn) noted as 350
